MEASURED TARGET: Vasopressin V1a receptor (Homo sapiens, UniProt P37288)
Sequence (P37288 whole entry): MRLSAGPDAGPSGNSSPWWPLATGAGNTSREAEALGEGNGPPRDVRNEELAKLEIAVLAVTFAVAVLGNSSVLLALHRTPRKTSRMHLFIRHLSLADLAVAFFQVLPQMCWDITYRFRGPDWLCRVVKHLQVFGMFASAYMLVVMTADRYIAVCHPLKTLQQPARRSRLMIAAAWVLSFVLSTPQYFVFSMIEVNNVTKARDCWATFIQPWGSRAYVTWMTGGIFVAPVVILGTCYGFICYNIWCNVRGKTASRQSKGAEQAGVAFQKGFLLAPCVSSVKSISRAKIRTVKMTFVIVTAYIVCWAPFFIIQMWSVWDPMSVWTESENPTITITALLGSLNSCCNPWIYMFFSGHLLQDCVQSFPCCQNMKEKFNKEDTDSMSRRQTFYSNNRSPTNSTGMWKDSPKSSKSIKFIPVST
ASSAY TEXT: Activation of human 3X-HA N-tagged AVP1a expressed in CHO-K1 cells incubated for 10 mins by cell Western assay
Type: cell-based
Bridge positions count the residues as written; N and C are the ends. Square brackets hold non-standard residues; d marks the D form. Peptide text beside a SMILES is read from it. * marks the point of attachment. X1 = OC[C@H]1O[C@@H](O[C@H]2[C@H](O)[C@@H](O)[C@H](*)O[C@@H]2CO)[C@H](O)[C@@H](O)[C@H]1O; Dap = NC[C@H](N)C(=O)O

[
  {
    "MOLECULE": "CC[C@H](C)[C@@H]1NC(=O)[C@H](Cc2ccc(O)cc2)NC(=O)[C@@H](N)CC(=O)NC[C@@H](C(=O)N2CCC[C@H]2C(=O)N[C@@H](CC(C)C)C(=O)NCC(=O)N[C@@H](CO[C@@H]2O[C@H](CO)[C@@H](O[C@@H]3O[C@H](CO)[C@H](O)[C@H](O)[C@H]3O)[C@H](O)[C@H]2O)C(N)=O)NC(=O)[C@H](CC(N)=O)NC(=O)[C@H](CCC(N)=O)NC1=O (H-DYIQN[Dap]PLGS(X1)-NH2; lactam 1-6)",
    "EC50": "Not Active"
  },
  {
    "MOLECULE": "CC[C@H](C)[C@@H]1NC(=O)[C@H](Cc2ccc(O)cc2)NC(=O)[C@@H](N)CCC(=O)NC[C@@H](C(=O)N2CCC[C@H]2C(=O)NC(C)(C)C(=O)NCC(=O)N[C@@H](CO[C@@H]2O[C@H](CO)[C@@H](O)[C@H](O)[C@H]2O)C(N)=O)NC(=O)[C@H](CC(N)=O)NC(=O)[C@H](CCC(N)=O)NC1=O",
    "EC50": "Not Active"
  }
]
